Property: log10 IC50; scope: individual compounds
Target: recombinant human IDO1 enzyme (Homo sapiens)
Sequence (P14902 whole entry): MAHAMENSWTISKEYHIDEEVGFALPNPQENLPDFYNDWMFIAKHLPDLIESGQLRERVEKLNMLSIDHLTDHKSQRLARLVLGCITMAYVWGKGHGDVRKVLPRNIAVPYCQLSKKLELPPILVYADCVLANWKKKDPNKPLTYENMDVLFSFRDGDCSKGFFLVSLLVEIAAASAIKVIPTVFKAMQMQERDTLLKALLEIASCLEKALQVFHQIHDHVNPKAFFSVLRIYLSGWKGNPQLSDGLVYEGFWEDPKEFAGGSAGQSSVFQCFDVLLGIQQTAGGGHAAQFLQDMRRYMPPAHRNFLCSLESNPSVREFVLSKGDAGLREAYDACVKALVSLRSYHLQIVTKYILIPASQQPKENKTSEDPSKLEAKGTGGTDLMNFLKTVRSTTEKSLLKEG
Assay: Test of hIDO1 for enzymatic activity in vitro (NFK Green fluorescence)
Heads up, the numbers here are log10 of IC50 in nM units.

Known log10 IC50 results, listed for orientation:
CPD_SMILES	ASSAY_SYSTEM	log10 IC50
O=C(CSc1nonc1/C(=N/O)Nc1ccc(F)c(Br)c1)NCC(F)(F)F	recombinant human IDO1 enzyme (Homo sapiens)	2.10
O=S(=O)(NCCSc1nonc1/C(=N/O)Nc1ccc(F)c(Br)c1)C1CC1	recombinant human IDO1 enzyme (Homo sapiens)	2.31
CS(=O)(=O)NCCSc1nonc1/C(=N/O)Nc1ccc(F)c(Br)c1	recombinant human IDO1 enzyme (Homo sapiens)	1.90
NS(=O)(=O)NCCOc1nonc1/C(=N/O)Nc1cc(F)c(Cl)c(F)c1	recombinant human IDO1 enzyme (Homo sapiens)	3.76
O=CNCCSc1nonc1/C(=N/O)Nc1ccc(F)c(Br)c1	recombinant human IDO1 enzyme (Homo sapiens)	1.87
NS(=O)(=O)N[C@H]1C[C@@H](Oc2nonc2/C(=N/O)Nc2ccc(F)c(Br)c2)C1	recombinant human IDO1 enzyme (Homo sapiens)	2.44

Give recorded log10 IC50 with recombinant human IDO1 enzyme (Homo sapiens) for the following compound: "O/N=C(\Nc1ccc(F)c(Br)c1)c1nonc1OCC(F)(F)F"
3.52

# returns recorded log10 IC50 (system: recombinant human IDO1 enzyme (Homo sapiens)) for "NCCOc1nonc1/C(=N/O)Nc1ccc(F)c(Br)c1"
1.85

API: value(readout= log10 IC50, system= recombinant human IDO1 enzyme (Homo sapiens), query= "O/N=C(\Nc1ccc(F)c(Br)c1)c1nonc1OCC1COC1" )
2.63

Can you look up log10 IC50 on recombinant human IDO1 enzyme (Homo sapiens) for "CCS(=O)(=O)NCCSc1nonc1/C(=N/O)Nc1ccc(F)c(Br)c1" ?
2.00

Query for recombinant human IDO1 enzyme (Homo sapiens): what log10 IC50 does the record show for "O=C(NCCSc1nonc1/C(=N/O)Nc1ccc(F)c(Br)c1)NC1CC1" ?
1.89

###

Target: recombinant human IDO1 enzyme (Homo sapiens)
Test: Test of hIDO1 for enzymatic activity in vitro (NFK Green fluorescence)
Items are presented alongside their recorded pIC50.
Quick note: pIC50 means taking -log10 of the concentration in moles per liter.

CPD_SMILES	ASSAY_SYSTEM	pIC50
CCNC(=O)CSc1nonc1C(=NO)Nc1ccc(F)c(Br)c1	recombinant human IDO1 enzyme (Homo sapiens)	7.14

Recall the recorded pIC50 for "NS(=O)(=O)NCCOc1nonc1/C(=N/O)Nc1ccc(F)c(C(F)(F)F)c1" with recombinant human IDO1 enzyme (Homo sapiens) and state it.
6.73

Param readout= pIC50; system= recombinant human IDO1 enzyme (Homo sapiens); entry= "NS(=O)(=O)NCCOc1nonc1/C(=N/O)Nc1ccc(Cl)c(Cl)c1" ; returns value.
5.42

###

Molecular target: IDO1 enzyme in Hela cells (Homo sapiens, UniProt P14902)
Construct: endogenous in cells
Test: Test of hIDO1 for cytological activity (Hela cell kynurenine by LCMS, interferon-γ induced)
Settings: interferon-γ 100 ng/ml, 20 hours
// classify: if (IC50 < 30 nM) Met else Not met

Field: below-cutoff. Rule: recorded IC50 strictly less than 30 nM. Subject: N=C(N)NC(=N)NCCSc1nonc1/C(=N/O)Nc1ccc(F)c(Br)c1 [Compound 0384]
Not met

Input CNC(=O)NCCSc1nonc1/C(=N/O)Nc1ccc(F)c(Br)c1 [Compound 0233] ; condition: IC50 strictly below 30 nM. Does it hold?
Met

Given the entry CC(=O)NCCSc1nonc1/C(=N/O)Nc1ccc(F)c(Br)c1 [Compound 0227] , would its reported IC50 be below 30 nM?
Met

Record CNS(=O)(=O)NCCSc1nonc1/C(=N/O)Nc1ccc(F)c(Br)c1 [Compound 0240] : is its IC50 strictly below 30 nM?
Met

Is 30 nM strictly greater than the compound's reported IC50? compound: NC(=O)NCCSc1nonc1/C(=N/O)Nc1cccc(I)c1 [Compound 0309]
Met

Could you please tell me whether IC50 recorded for NS(=O)(=O)NCCSc1nonc1/C(=N/O)Nc1cccc(I)c1 [Compound 0295] is less than 30 nM?
Not met

Does the reported IC50 of NS(=O)(=O)NCCOc1nonc1C(=NO)Nc1ccc(F)c(C(F)F)c1 [Compound 0151] stay below 30 nM?
Met

Identify whether the compound NC(=O)CSc1nonc1/C(=N/O)Nc1ccc(F)c(Br)c1 [Compound 0251] records IC50 below 30 nM.
Met

// data source = patent US20190169140A1
